# TEST SYSTEM: T1, JCV T-antigen origin-binding domain (OBD) (JC virus (JCV), UniProt P03072 132-261)
# T1 sequence: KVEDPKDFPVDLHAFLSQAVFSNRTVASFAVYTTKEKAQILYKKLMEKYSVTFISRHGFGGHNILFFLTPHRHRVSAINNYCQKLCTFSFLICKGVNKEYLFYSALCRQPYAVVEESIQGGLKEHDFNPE
# RUN DESCRIPTION: ITC; ITC (VP-ITC): 10 mM sodium phosphate pH 7.0, 50 mM NaCl; temperature not stated; OBD in syringe (~80 uM for Site II, 40 uM for Site I), DNA 1.5 uM / 1.0 uM
# STATED CONDITIONS: protein: recombinant; tags: N-terminal GST removed by thrombin; chain copies: 4; blunt
pKd: −log10 of the molar value.

{"columns": ["BINDER", "pKd"],
 "data": [
  ["JCV Site I 28 bp (dsDNA) DNA 1: GCGTGGAGGCTTTTTAGGAGGCCAGGGA DNA 2: TCCCTGGCCTCCTAAAAAGCCTCCACGC", 7.74]
]}

src = paper PMC3930596
